Origin of the recorded values: paper PMC6771786

recorded-metric: pKd
Please treat pKd as minus the base-10 logarithm of the molar concentration.

Find the measured pKd of C[C@@H](O)C(=O)O [D‐lactate] with Dld2 (D-lactate dehydrogenase 2) (Saccharomyces cerevisiae, UniProt P46681) as test system.
Sequence (P46681 whole entry): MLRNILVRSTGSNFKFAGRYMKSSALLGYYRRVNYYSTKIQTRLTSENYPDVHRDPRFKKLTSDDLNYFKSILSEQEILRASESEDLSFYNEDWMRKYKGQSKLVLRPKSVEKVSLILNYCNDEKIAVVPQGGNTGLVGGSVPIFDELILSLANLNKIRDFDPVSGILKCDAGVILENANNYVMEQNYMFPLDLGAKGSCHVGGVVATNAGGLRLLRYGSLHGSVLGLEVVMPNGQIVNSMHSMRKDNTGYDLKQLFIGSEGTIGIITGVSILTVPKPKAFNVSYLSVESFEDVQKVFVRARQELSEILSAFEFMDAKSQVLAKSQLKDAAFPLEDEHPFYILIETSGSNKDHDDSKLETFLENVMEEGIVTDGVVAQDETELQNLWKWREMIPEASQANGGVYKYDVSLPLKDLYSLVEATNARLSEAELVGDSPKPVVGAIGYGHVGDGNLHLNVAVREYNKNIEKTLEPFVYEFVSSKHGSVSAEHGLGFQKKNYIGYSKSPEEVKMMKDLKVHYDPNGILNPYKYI
1.82
